tested on: SW480, human primary colon cancer cell line; test: MTT assay, cytotoxicity in SW480; format: cell-based; conditions: MTT, 72 h, mean ± SD
parameter.measured: pIC50
// pIC50: -log10(molar conc.)

# return recorded pIC50 for entry O=C(CCCCCBr)[c-]1cccc1.[Fe+2].c1cc[cH-]c1 [FER, (6-bromo-1-oxohexyl)ferrocene, reference compound]
4.21

----------
system: SW480, human primary colon cancer cell line; assay: MTT assay, cytotoxicity in SW480; format: cell-based; conditions: Homo sapiens, SW480; MTT, 72 h, mean ± SD
pIC50: −log10 of the molar value.
Tick met if pIC50 is 5 or greater. Tick not met if pIC50 is less than 5.

Is pIC50 at least 5? Consider O=c1[nH]cc(F)c(=O)[nH]1 [5FU, 5-fluorouracil, reference compound]
not met

State whether the measured pIC50 reaches 5, counting equality as reaching it, for O=c1cc(CCl)occ1O [Compound 4]
not met

pIC50 >= 5 for Nc1ccn([C@@H]2O[C@H](CO)[C@@H](O)C2(F)F)c(=O)n1 [GEM, gemcitabine, reference compound] ?
met

Check the entry CC[C@@H](C(=O)[C@@H](C)[C@@H](O)[C@H](C)CCc1ccc(C)c(O)c1C(=O)OC[C@H]1O[C@@H](n2cc(F)c(=O)[nH]c2=O)C[C@@H]1O)[C@H]1O[C@](CC)([C@H]2CC[C@](O)(CC)[C@H](C)O2)C[C@@H]1C [Compound 11, LAS–Floxuridine Conjugate] : does pIC50 equal or exceed 5?
not met

Determine whether this compound has pIC50 no lower than 5: O=c1[nH]c(=O)n(CCOCCBr)cc1F [Compound 3]
not met

----------
Tested on: SW620, human metastatic colon cancer cell line
Assay: MTT assay, cytotoxicity in SW620
Format: cell-based
Conditions: Homo sapiens, SW-620; MTT, 72 h, mean ± SD
Protocol: The human cell lines SW480 (primary colon cancer), SW620 (lymph node metastatic colon cancer from the same patient as primary cancer cells), PC3 (metastatic prostate cancer), and HaCaT (immortalized keratinocytes) were obtained from the American Type Culture Collection (ATCC, Rockville, USA). […] The cell viability was assessed by using of MTT salt [3-(4,5-dimethylthiazol-2-yl)-2,5-diphenyltetrazolium bromide] converted by mitochondrial dehydrogenase, occurring in living cells. […]
Exercise: state measured pIC50 for each of the compounds provided.
Scale: pIC50 equals -log10([C]), with [C] in mol/L.

Specify the recorded pIC50 for CC[C@@H](C(=O)[C@@H](C)[C@@H](O)[C@H](C)CCc1ccc(C)c(O)c1C(=O)OC[C@H]1O[C@@H](n2cc(F)c(=O)[nH]c2=O)C[C@@H]1O)[C@H]1O[C@](CC)([C@H]2CC[C@](O)(CC)[C@H](C)O2)C[C@@H]1C [Compound 11, LAS–Floxuridine Conjugate] , system: SW620, human metastatic colon cancer cell line.
4.72

Enter recorded pIC50 with SW620, human metastatic colon cancer cell line for O=c1cc(CCl)occ1O here.
4.70

Give pIC50 only, for CC[C@@H](C(=O)[C@@H](C)[C@@H](O)[C@H](C)CCc1ccc(C)c(O)c1C(=O)OCCC[P+](c1ccccc1)(c1ccccc1)c1ccccc1)[C@H]1O[C@](CC)([C@H]2CC[C@](O)(CC)[C@H](C)O2)C[C@@H]1C [Compound 13, LAS–TPP Conjugate] , using SW620, human metastatic colon cancer cell line data.
5.64

Identify measured pIC50 obtained with SW620, human metastatic colon cancer cell line for O=c1[nH]cc(F)c(=O)[nH]1 [5FU, 5-fluorouracil, reference compound] .
4.41

For SW620, human metastatic colon cancer cell line, give pIC50 of the listed compound: CC[C@@H](C(=O)[C@@H](C)[C@@H](O)[C@H](C)CCc1ccc(C)c(O)c1C(=O)OC[C@H]1O[C@@H](n2ccc(N)nc2=O)C(F)(F)[C@@H]1O)[C@H]1O[C@](CC)([C@H]2CC[C@](O)(CC)[C@H](C)O2)C[C@@H]1C [Compound 12, LAS–Gemcitabine Conjugate]
5.44

Give pIC50; test system SW620, human metastatic colon cancer cell line; compound O=c1[nH]c(=O)n([C@H]2C[C@H](O)[C@@H](CO)O2)cc1F [FLO, floxuridine, reference compound]
5.06

Write pIC50 of O=c1[nH]c(=O)n(CCCCBr)cc1F ; system used: SW620, human metastatic colon cancer cell line
4.12

Find the measured pIC50 of BrCCC[P+](c1ccccc1)(c1ccccc1)c1ccccc1.[Br-] [TPP, reference compound] with SW620, human metastatic colon cancer cell line as test system.
4.41

Please respond with reported pIC50 (system SW620, human metastatic colon cancer cell line) for Nc1ccn([C@@H]2O[C@H](CO)[C@@H](O)C2(F)F)c(=O)n1 [GEM, gemcitabine, reference compound] .
5.47

Give SW620, human metastatic colon cancer cell line pIC50 for the following compound: O=c1cc(CO)occ1O [KOJ, kojic acid, reference compound]
4.03

Consider the compound C=C(C)[C@@H]1CC[C@]2(C(=O)O)CC[C@]3(C)[C@H](CC[C@@H]4[C@@]5(C)CC[C@H](O)C(C)(C)[C@@H]5CC[C@]43C)[C@@H]12 [BET, betulinic acid, reference compound] tested on SW620, human metastatic colon cancer cell line; state its pIC50.
4.19

State recorded pIC50 with SW620, human metastatic colon cancer cell line, entry CC[C@@H](C(=O)[C@@H](C)[C@@H](O)[C@H](C)CCc1ccc(C)c(O)c1C(=O)OCCCCCCBr)[C@H]1O[C@](CC)([C@H]2CC[C@](O)(CC)[C@H](C)O2)C[C@@H]1C , no comment.
4.47

# lookup: SW620, human metastatic colon cancer cell line pIC50, key = O=c1[nH]c(=O)n(CCCCCCBr)cc1F
4.44

Fill: pIC50 (SW620, human metastatic colon cancer cell line) for this compound CC[C@@H](C(=O)[C@@H](C)[C@@H](O)[C@H](C)CCc1ccc(C)c(O)c1C(=O)OCc1cc(=O)c(O)co1)[C@H]1O[C@](CC)([C@H]2CC[C@](O)(CC)[C@H](C)O2)C[C@@H]1C [Compound 7, LAS–Kojic Acid Conjugate]
5.00

Provide pIC50, system SW620, human metastatic colon cancer cell line, entry CC[C@@H](C(=O)[C@@H](C)[C@@H](O)[C@H](C)CCc1ccc(C)c(O)c1C(=O)O)[C@H]1O[C@](CC)([C@H]2CC[C@](O)(CC)[C@H](C)O2)C[C@@H]1C
5.21

Write down measured pIC50 (SW620, human metastatic colon cancer cell line) for this compound. CC[C@@H](C(=O)[C@@H](C)[C@@H](O)[C@H](C)CCc1ccc(C)c(O)c1C(=O)OCCOCCn1cc(F)c(=O)[nH]c1=O)[C@H]1O[C@](CC)([C@H]2CC[C@](O)(CC)[C@H](C)O2)C[C@@H]1C [Compound 10, LAS–5-Fluorouracil Conjugate]
4.96

State, for SW620, human metastatic colon cancer cell line, measured pIC50 of the compound listed here: C=C(C)[C@@H]1CC[C@]2(C(=O)OCCCCCCOC(=O)c3c(CC[C@@H](C)[C@H](O)[C@H](C)C(=O)[C@H](CC)[C@H]4O[C@](CC)([C@H]5CC[C@](O)(CC)[C@H](C)O5)C[C@@H]4C)ccc(C)c3O)CC[C@]3(C)[C@H](CC[C@@H]4[C@@]5(C)CC[C@H](O)C(C)(C)[C@@H]5CC[C@]43C)[C@@H]12 [Compound 6, LAS–Betulinic Acid Conjugate]
4.40

Provide pIC50, tested on SW620, human metastatic colon cancer cell line, for O=c1[nH]c(=O)n(CCOCCBr)cc1F .
4.33

Report pIC50 under test system SW620, human metastatic colon cancer cell line for CC[C@@H](C(=O)[C@@H](C)[C@@H](O)[C@H](C)CCc1ccc(C)c(O)c1C(=O)OCCCCCCn1cc(F)c(=O)[nH]c1=O)[C@H]1O[C@](CC)([C@H]2CC[C@](O)(CC)[C@H](C)O2)C[C@@H]1C [Compound 9, LAS–5-Fluorouracil Conjugate] .
4.26

Look up SW620, human metastatic colon cancer cell line data: pIC50 of CC[C@@H](C(=O)[C@@H](C)[C@@H](O)[C@H](C)CCc1ccc(C)c(O)c1C(=O)OCCCCn1cc(F)c(=O)[nH]c1=O)[C@H]1O[C@](CC)([C@H]2CC[C@](O)(CC)[C@H](C)O2)C[C@@H]1C [Compound 8, LAS–5-Fluorouracil Conjugate] , then report it.
4.85
